- ASSAY_METHOD_TEXT: Inhibition of HIV1 HXB2 gp120-mediated viral infusion into HEK293 cells after 24 hrs by luciferase reporter gene assay in presence of 45 mg/ml human serum albumin
pIC50: −log10 of the molar value.
ASSAY_READOUT: pIC50

> print(dat)
                           structure.string  observed.result
1  CN1CCN(c2cccc3nc(CN(C)[C@H]4CCCc5cccnc54)c(CO)n23)CC1             8.77

###

- ASSAY_METHOD_TEXT: Inhibition of CXCR4-mediated chemotaxis in SDF1-stimulated human U937 cells treated 15 mins before SDF1 challenge measured after 2 hrs by luminescence assay
ASSAY_READOUT: IC50 (pM)

> print(dat)
                           structure.string  assay.readout  observed.result
1  CN1CCN(c2cccc3nc(CN(C)[C@H]4CCCc5cccnc54)c(CO)n23)CC1           IC50              340
